EXPERIMENTAL SYSTEM: pre-fibrillized Amylin/IAPP fibrils (Homo sapiens, UniProt P10997)
Construct: purchased Bachem Inc
Sequence (P10997 34-70 limits assumed): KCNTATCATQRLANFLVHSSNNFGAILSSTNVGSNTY
EXPERIMENTAL DETAILS: Thioflavin T fluorometry, disruption/disassembly of pre-formed Amylin/IAPP fibrils
Assay type: biochemical
ASSAY SETUP: Amylin/IAPP:test compound wt/wt ratio 1:0.01; 3-day incubation at 37° C.
Protocol: The biological activity of the compounds provided herein as disruptors/inhibitors of IAPP amyloid protein fibrils, was assessed by determining the efficacy of the compounds to cause a disassembly/disruption of pre-formed IAPP amyloid fibrils. […] In this assay Thioflavin T binds specifically to fibrillar amyloid, and this binding produces a fluorescence enhancement at 485 nm that is directly proportional to the amount of fibrils present. […]
PROPERTY NAME: % Inhibition Amylin/IAPP (result ± S.D.), Thioflavin T fluorometry (%)

Solved cases (3 shown):
MOLECULE | EXPERIMENTAL SYSTEM | ENDPOINT RESULT
Oc1ccc(-c2cc(-c3ccc(O)c(O)c3)[nH]n2)cc1O [Compound 8, 3,5 bis(3,4 Dihydroxyphenyl)Pyrazole] | pre-fibrillized Amylin/IAPP fibrils (Homo sapiens, UniProt P10997) | 48.4
O=C(Nc1cccc(O)c1O)c1ccc(O)c(O)c1 | pre-fibrillized Amylin/IAPP fibrils (Homo sapiens, UniProt P10997) | 52.9
CN(C(=O)c1ccc(O)c(O)c1)c1ccc(O)c(O)c1 | pre-fibrillized Amylin/IAPP fibrils (Homo sapiens, UniProt P10997) | 57.4

A = O=C(Nc1ccc(O)c(O)c1)c1cccc(O)c1O
B = Oc1ccc(C23CC4CC(C2)CC(c2ccc(O)c(O)c2)(C4)C3)cc1O [Compound 9, 1,3 bis(3,4 dihydroxyphenyl) Adamantane]
Endpoint returns whichever of A and B has the numerically higher % Inhibition Amylin/IAPP (result ± S.D.), Thioflavin T fluorometry. Your answer should be the label of the entry you select.
A
(A: 60.9%, B: 36.6%)

meta.source: patent US20090227647A1
